- test.summary: in vitro dissolution test, microcentrifuge method, PBS (Example 8, Drug 2 dispersions)
- Type: physicochemical
- experimental.conditions: phosphate buffered saline (PBS), pH 6.5, maximum concentration of Drug 2 in solution during the first 90 minutes, PBS
- Procedure: The spray-dried dispersions of Examples 6 and 7 were evaluated in an in vitro dissolution test using a microcentrifuge method. In this test, the spray-dried dispersion was added to a microcentrifuge tube for a Drug 2 dose of about 1000 μg/mL (7.2 mg for Example 6, 18 mg for Example 7). […] The resulting supernatant solution was then sampled and diluted 1:6 (by volume) with methanol and then analyzed by high-performance liquid chromatography (HPLC). […]
readout.label: Cmax at 1000 μg/mL (ng/mL)
Use ng/mL as the unit, but write only the number.

Problem: Query Cmax at 1000 μg/mL for CCOC(=O)N1c2ccc(C(F)(F)F)cc2[C@@H](N(Cc2cc(C(F)(F)F)cc(C(F)(F)F)c2)C(=O)OC)C[C@H]1CC [Control 2]
Result: 6000
